pIC50: −log10 of the molar value.
Record: compiled pIC50 on UniProtKB P23458 from multiple reports.
measured-attribute: pIC50

INSERT INTO assay_data (molecule, meas_value) VALUES
  ('N#CCC1(n2cc(-c3nc(-c4cnn(C5COC5)c4)cc4nccn34)cn2)CN(CC(F)F)C1', '6.00 to 7.00'),
  ('COc1ccc2nc(Cl)c(CN3CCC(N4CC(CC#N)(n5cc(-c6ncnc7[nH]ccc67)cn5)C4)CC3)cc2c1', '≥ 8.30'),
  ('Cc1cnc(Nc2ccc(N3CCOCC3)nc2)nc1N1CC(CCC#N)C1', '> 7.00'),
  ('Cc1nn(C)cc1Nc1ncc(Cl)c(NC2CCN(c3ccc(C#N)nn3)CC2)n1', 9.40),
  ('CCC(CC)Cn1ccc2cnc(Nc3cnn(CC(=O)OC4CC(C#N)C4)c3)nc21 (stereo not drawn)', '> 7.00'),
  ('C[C@H](NC(=O)c1ccc(N2CC(CC#N)(n3cc(-c4ncnc5[nH]ccc45)cn3)C2)cc1F)C(F)(F)F', '> 8.00'),
  ('CN(c1ncnc2[nH]ccc12)C1CCC2(CC1)CCN(C(=O)C1CC1)CC2', '7.00 to 8.00'),
  ('Cc1cc(Nc2ncc(C)c(N3CC(CC#N)(N4CC(C)CC5(CC5)C4)C3)n2)sn1 (stereo not drawn)', '> 8.00'),
  ('O=C1NCCCCOCc2cc(ccc2OCC2CCc3ccccc32)Nc2nccc(n2)-c2ccc1cc2[N+](=O)[O-] (stereo not drawn)', '< 5.00'),
  ('CCOC(=O)c1ccc(Nc2ncc3ccn(CC(CC)CC)c3n2)cc1', '6.00 to 7.00'),
  ('N#CCC(C1CCN(c2cccc(Cl)n2)C1)n1cc(-c2ncnc3[nH]ccc23)cn1 (single isomer, unassigned)', '> 8.00'),
  ('CCc1cc(O)c(F)cc1-c1cc2[nH]ncc2c(NCc2ccccc2N(C)S(C)(=O)=O)n1', '> 9.30'),
  ('O=C1NCCCCCOCc2cc(ccc2N2CCOCC2)Nc2nccc(n2)-c2ccc1cc2[N+](=O)[O-]', '5.00 to 6.00'),
  ('CN(c1ncnc2[nH]ccc12)C1CCN(S(=O)(=O)c2ccccc2)CC1', 8.38),
  ('C[C@@H](O)c1nc2cnc3ccsc3c2n1[C@H]1CC[C@H](NCC(F)(F)F)CC1', '≥ 7.00'),
  ('CCS(=O)(=O)N1CC(CC#N)(n2cc(-c3nc(Nc4cnn(C5CCN(C)CC5)c4)nc4ccsc34)cn2)C1', '> 7.30'),
  ('Cc1cc(Nc2ncc(C)c(N3CC(CC#N)(NC(=O)c4ccccn4)C3)n2)sn1', '> 7.70'),
  ('Cc1cnc(Nc2ccc3c(c2)CN(C)C3)nc1N1CC(CC#N)(N2CCC(CCF)CC2)C1', '> 7.30'),
  ('CCC(Cn1ccc2cnc(Nc3cnn(CC(=O)O[C@@H](C)CO)c3)nc21)C(C)C (stereo partly drawn)', '> 7.00'),
  ('CS(=O)(=O)NCc1nc2cnc3ccsc3c2n1[C@H]1CC[C@H](CC#N)CC1', '≥ 7.00'),
  ('O=S(=O)(Nc1cccc(-c2cnc3ccccc3n2)c1)c1cccs1', '< 4.30'),
  ('Nc1cc2ccc1-c1ccnc(n1)Nc1ccc(Oc3ccccc3)c(c1)COCCCCNC2=O', '5.00 to 6.00'),
  ('N#CCC(=O)N1CCC[C@@H](Nc2c(-c3ccsn3)cnc3[nH]ccc23)C1', '≥ 8.00'),
  ('Nc1cc2ccc1-c1ccnc(n1)Nc1ccc(OCC3CC3)c(c1)COc1ccc(cc1)NC2=O', '< 5.00');

###

Record: compiled pIC50 on Tyrosine-protein kinase JAK1 (Homo sapiens, UniProt P23458) from multiple reports.
pIC50: −log10 of the molar value.
measured-attribute: pIC50

INSERT INTO assay_data (compound, test_target, meas_value) VALUES
  ('C[C@]1(F)CCC[C@H]1Nc1c(C(N)=O)cnn2cc(N3CCCC3=O)cc12 (racemic)', 'Tyrosine-protein kinase JAK1 (Homo sapiens, UniProt P23458)', 8.42),
  ('C[C@@H](O)C[C@H](C1CC1)n1cc(-c2nc(-c3cnn(C)c3)cc3nccn23)cn1', 'Tyrosine-protein kinase JAK1 (Homo sapiens, UniProt P23458)', '< 6.00'),
  ('O=C1NCCCCOCc2cc(ccc2OC2CCCOC2)Nc2nccc(n2)-c2ccc1cc2[N+](=O)[O-] (stereo not drawn)', 'Tyrosine-protein kinase JAK1 (Homo sapiens, UniProt P23458)', '5.00 to 6.00'),
  ('N#CCC1(n2cc(-c3ncnc4[nH]ccc34)cn2)CN(C2CCN(C(=O)c3cccc(Br)c3)CC2)C1', 'Tyrosine-protein kinase JAK1 (Homo sapiens, UniProt P23458)', '≥ 8.30'),
  ('CN(c1ncnc2[nH]ccc12)C1CC2(C1)CN(C(=O)c1ccc(-c3ccn(C)n3)cc1)C2', 'Tyrosine-protein kinase JAK1 (Homo sapiens, UniProt P23458)', '6.00 to 7.00'),
  ('N#CCC1(n2cc(-c3ncnc4[nH]ccc34)cn2)CN(C2CCN(C(=O)c3cc4ccccc4s3)CC2)C1', 'Tyrosine-protein kinase JAK1 (Homo sapiens, UniProt P23458)', '≥ 8.30'),
  ('CN(c1ncnc2[nH]ccc12)C1CCC2(CC1)CCN(C(=O)Nc1ccc(C#N)cc1)CC2', 'Tyrosine-protein kinase JAK1 (Homo sapiens, UniProt P23458)', '7.00 to 8.00'),
  ('Cn1cnc(Nc2nc(NC(c3ccc(F)cc3)C3CCCC3)nc(N3CCOCC3)n2)c1 (stereo not drawn)', 'Tyrosine-protein kinase JAK1 (Homo sapiens, UniProt P23458)', 5.70),
  ('COC(=O)NC[C@H]1CC[C@H](n2c([C@@H](C)O)nc3cnc4ccsc4c32)CC1', 'Tyrosine-protein kinase JAK1 (Homo sapiens, UniProt P23458)', '≥ 7.00'),
  ('Nc1cc2ccc1-c1ccnc(n1)Nc1cc(F)c(OC3CCOCC3)c(c1)COCCCCNC2=O', 'Tyrosine-protein kinase JAK1 (Homo sapiens, UniProt P23458)', '6.00 to 7.00'),
  ('CC1CCNC(=O)c2ccc(c(N)c2)-c2ccnc(n2)Nc2ccc(OC3CC3)c(c2)COC1 (stereo not drawn)', 'Tyrosine-protein kinase JAK1 (Homo sapiens, UniProt P23458)', '5.00 to 6.00'),
  ('N#CCC1(n2cc(-c3ncnc4[nH]ccc34)cn2)CN(c2ccc(C(=O)NC3CC(F)(F)C3)nc2)C1', 'Tyrosine-protein kinase JAK1 (Homo sapiens, UniProt P23458)', '> 8.00'),
  ('CC(CC#N)n1cc(-c2nc(-c3ccc(N4CCOCC4)cc3)cc3nccn23)cn1 (stereo not drawn)', 'Tyrosine-protein kinase JAK1 (Homo sapiens, UniProt P23458)', '7.00 to 8.00'),
  ('CCS(=O)(=O)N1CC(CC#N)(n2cc(-c3nc(Nc4ccc(C#N)cc4)nc4ccsc34)cn2)C1', 'Tyrosine-protein kinase JAK1 (Homo sapiens, UniProt P23458)', '6.30 to 7.30'),
  ('O=S(=O)(N1CC(CCF)(n2cc(-c3nc(-c4cnn(C5CCOCC5)c4)cc4nccn34)cn2)C1)C(F)(F)F', 'Tyrosine-protein kinase JAK1 (Homo sapiens, UniProt P23458)', '7.00 to 8.00'),
  ('C[C@@H](O)c1nc2cnc3[nH]ccc3c2n1N1CCC2(CC1)CC2C#N (stereo partly drawn)', 'Tyrosine-protein kinase JAK1 (Homo sapiens, UniProt P23458)', 7.80),
  ('N#CCC(C1CC1)n1cc(-c2nc(-c3cnn(C4CCOCC4)c3)cc3nccn23)cn1 (stereo not drawn)', 'Tyrosine-protein kinase JAK1 (Homo sapiens, UniProt P23458)', '6.00 to 7.00'),
  ('Cc1cc(Nc2ncc(C)c(N3CC(CC#N)(N(C)C4CC4)C3)n2)sn1', 'Tyrosine-protein kinase JAK1 (Homo sapiens, UniProt P23458)', '> 8.00'),
  ('CCCO[C@H]1CNc2cc(Nc3ncc(C(N)=O)c(NC4CC4)n3)ccc2OC1', 'Tyrosine-protein kinase JAK1 (Homo sapiens, UniProt P23458)', '> 8.00'),
  ('CC(Nc1cccc(-c2cnc3ccccc3n2)c1)=C1CCOC1=O (racemic)', 'Tyrosine-protein kinase JAK1 (Homo sapiens, UniProt P23458)', '< 5.00'),
  ('N#CCC1(n2cc(-c3ncnc4[nH]ccc34)cn2)CN(c2ccc(C(=O)NC3(C(F)(F)F)CC3)nc2)C1', 'Tyrosine-protein kinase JAK1 (Homo sapiens, UniProt P23458)', '> 8.00');

###

Record: compiled pIC50 on Tyrosine-protein kinase JAK1 (Homo sapiens, UniProt P23458) from multiple reports.
pIC50: −log10 of the molar value.
measured-attribute: pIC50

INSERT INTO results (input_smiles, measured_attribute, meas_value) VALUES
  ('NC(=O)c1cnc2[nH]ccc2c1NN1CCC(C(=O)NCC(F)(F)F)CC1', 'pIC50', 7.62),
  ('CC[C@H](Cn1ccc2cnc(Nc3cnn(CC(=O)O[C@H]4CCN(C)C4)c3)nc21)C(C)C', 'pIC50', '> 7.00'),
  ('COc1c(F)c(F)cc(C(=O)N2CCC(N3CC(CC#N)(n4cc(-c5ncnc6[nH]ccc56)cn4)C3)CC2)c1F', 'pIC50', '≥ 8.30'),
  ('CCS(=O)(=O)N1CC(CC#N)(n2cc(-c3nc(Nc4cnn(CCCc5nn[nH]n5)c4)nc4ccsc34)cn2)C1', 'pIC50', '> 7.30');
